Ref: the supplement of paper PMC11865577

Listed below: pull-down binding Z-score values for each entry.
# Tested on: TO-N3 (biotin conjugate)
# procedureDetails: pull-down binding Z-score (relative to library population); higher = stronger binding
# recordedConditions: RNA library: Library-2
Please reply with the value in numeric form only.

* UUUCUGUUGUCUGAAAGAAAAGAAC [hsa-mir-523] | -0.0983
* GUGAAUUCAACAU [DMSMaPseq_invitro_SARS-CoV-2_Motif_308] | -0.428
* CAGGCAAGAAGGAUACUUACCUG [U1snRNP5ss-25] | -0.353

Bench note: what pull-down binding Z-score did UUUUCCCUUUCUCUUGCCCUGAAA [hsa-mir-4509-1_4509-3_4509-2] show?
-0.332

Bench note: what pull-down binding Z-score did UCCUAAAGAGGA show?
0.703

Bench note: what pull-down binding Z-score did GUACAUACAGCUAAUAAAUGGGAUCUCAUUAUUAGUGAUAUGUAC show?
-0.621

Bench note: what pull-down binding Z-score did GAAGCCUUGAUCAGAAGCUAGGAAGGCUUC [hsa-mir-4762] show?
0.654

Bench note: what pull-down binding Z-score did UGUCUUGUGUCUGUAAGUAU [hsa-mir-1275] show?
-0.413

Bench note: what pull-down binding Z-score did CAGGUAUGAAUGAUACUUACCUG [U1snRNP5ss-11] show?
0.898

Bench note: what pull-down binding Z-score did CCCUAAGACUAAAAAUGUUACAAAAGAAAAUGACUCUAAAGAGGGUUUUUUCACUUACAUUUGUGGG [DMSMaPseq_invitro_SARS-CoV-2_Motif_371] show?
-1.03

Bench note: what pull-down binding Z-score did GGGUGUAUGGUAUAGGGGUAGCCU [hsa-mir-3137] show?
2.5

Bench note: what pull-down binding Z-score did GUCUGCCAAGGUUUUGGCAGAC [hsa-mir-3913-2] show?
-0.992

---

# Tested on: TO-3-N3 (biotin conjugate)
# procedureDetails: pull-down binding Z-score (relative to library population); higher = stronger binding
# recordedConditions: RNA library: Library-2
Outcome label depends on pull-down binding Z-score relative to -0.3: at/above gives Condition met, below gives Condition not met.

Past entries and their recorded results:
- UCCAGGGCUCCUGACACCUGGA [hsa-mir-6861]: Condition not met
- UGUGGUUGGGGCCAUGGCGGGUGGGCAGCCCAGCCUCUGAGCCUUCCU [hsa-mir-1238]: Condition met
- UCCAAGAACUUGGA: Condition not met

Evaluate GUGGUUAUACCUACUAAAAAGGCUGGUGGCACUACUGAAAUGCUAGCGAAAGCUUUGAGAAAAGUGCCAACAGACAAUUAUAUAACCAC : pull-down binding Z-score at minimum -0.3?
Condition not met

Evaluate GCUUCCGCUCUGCAGAGGC [hsa-mir-6822] : pull-down binding Z-score at minimum -0.3?
Condition met

Evaluate GCGCUGCCAGAAACUGGCAGCGC [full-UA] : pull-down binding Z-score at minimum -0.3?
Condition not met

---

# Tested on: TO-3-N3 (biotin conjugate)
# procedureDetails: pull-down binding Z-score (relative to library population); higher = stronger binding
# recordedConditions: RNA library: Library-2
Outcome label depends on pull-down binding Z-score relative to -0.1: at/above gives yes, below gives no.

* GCGCUGCCAGAAACUGGCUUGAGCGC [bulge-UUG] | yes
* UGUUGGCAUCAUUCUAUUGGAUUUGAUUACGUCUAUAAUCCGUUUAUGAUUGAUGUUCAACA | no
* CUGGGAGGUGUGAUCCUGUGCUUCCUGG [hsa-mir-3689a] | yes

Moving on to the next sequence.
Evaluate AGUUUCUGGAAUGUCAGAACUUCCAGAAACU [hsa-mir-3199-2] : pull-down binding Z-score at minimum -0.1?
yes
